Data origin: patent US8927500

# targetOrTestSystem: T1, MDMX (In-house, 40 kD), O15151
# T1 chain: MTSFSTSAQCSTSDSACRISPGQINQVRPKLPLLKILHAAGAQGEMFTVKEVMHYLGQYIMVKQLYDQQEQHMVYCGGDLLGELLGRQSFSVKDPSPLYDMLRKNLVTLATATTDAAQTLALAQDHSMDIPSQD
# testProtocol: competitive FP vs FAM-labelled linear peptide; grade + = greater than 1000 nM
# recordedConditions: remark: other sources report otherwise
pKi: −log10 of the molar value. Bridges are numbered along the chain shown (N, C = ends). [ ]: non-standard residue; d: D form. R8 = C=CCCCCCC[C@@](C)(N)C(=O)O; hLeu = CC(C)CC[C@H](N)C(=O)O; S5 = C=CCCC[C@](C)(N)C(=O)O; Cou6 = not defined here; Cou8 = not defined here; βAla = NCCC(=O)O
readoutKind: pKi

Cou8-[βAla]LTF[R8]EYWAQ[hLeu][S5]SAA-NH2 (staple 5-12; reading uncertain) [SP447]: < 6.00
Cou6-[βAla]LTF[R8]EYWAQ[hLeu][S5]SAA-NH2 (staple 5-12; reading uncertain) [SP446]: < 6.00

[in] Answer with the recorded pKi of Ac-LTA[R8]EYWAQL[S5]AAAAA[dA]-NH2 (staple 4-11) [SP560] only.
[out] < 6.00
